The reported measurements were obtained from the supplement of paper PMC3334620.

Target: Mot3 (UniProt P54785)
Sequence: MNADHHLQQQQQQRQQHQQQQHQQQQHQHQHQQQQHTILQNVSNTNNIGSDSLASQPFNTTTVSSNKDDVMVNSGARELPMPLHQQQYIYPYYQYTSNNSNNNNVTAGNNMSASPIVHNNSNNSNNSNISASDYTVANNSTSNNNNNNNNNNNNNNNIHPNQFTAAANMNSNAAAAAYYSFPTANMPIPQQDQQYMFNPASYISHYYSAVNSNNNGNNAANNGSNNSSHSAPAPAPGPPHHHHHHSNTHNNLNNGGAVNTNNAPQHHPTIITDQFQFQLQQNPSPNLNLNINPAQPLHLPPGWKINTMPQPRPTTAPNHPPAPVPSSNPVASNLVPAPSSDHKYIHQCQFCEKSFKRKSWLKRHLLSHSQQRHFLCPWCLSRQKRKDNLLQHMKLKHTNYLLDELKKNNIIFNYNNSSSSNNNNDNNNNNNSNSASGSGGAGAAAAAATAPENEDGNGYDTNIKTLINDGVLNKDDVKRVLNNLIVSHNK
Assay: PBM E-score (8-mer binding enrichment) (E-score (-0.5 to 0.5)); higher = stronger / more preferred TF binding
Conditions: protein concentration: 200 nM; construct: GST-full length
Whole data set: some 33,000 sequences, median “E-score (-0.5 to 0.5)” near -0.035, cut for the highest 2% near 0.34. This is one part of a sample in which the highest values are shown more often than they occur.
Param threshold (0.2) applies to PBM E-score; output 1 (yes) when value >= threshold, 0 (no) when value < threshold.

chain	targetOrSystem	cat
GATTACAA	Mot3 (UniProt P54785)	1 (yes)
ACAACTAA	Mot3 (UniProt P54785)	0 (no)
CATGTTTC	Mot3 (UniProt P54785)	1 (yes)
AATGCCTC	Mot3 (UniProt P54785)	0 (no)
GATTACTA	Mot3 (UniProt P54785)	0 (no)
AATAAGTA	Mot3 (UniProt P54785)	0 (no)
GGATTACA	Mot3 (UniProt P54785)	1 (yes)
CAGCCGCG	Mot3 (UniProt P54785)	0 (no)
CCCTAGTC	Mot3 (UniProt P54785)	0 (no)
CATGTTGA	Mot3 (UniProt P54785)	1 (yes)
AATTACAT	Mot3 (UniProt P54785)	1 (yes)
AGTGTGCG	Mot3 (UniProt P54785)	0 (no)
GTCGGGAA	Mot3 (UniProt P54785)	0 (no)
GCATCGCA	Mot3 (UniProt P54785)	0 (no)
CGCGTGCA	Mot3 (UniProt P54785)	0 (no)
CGCGTTAG	Mot3 (UniProt P54785)	0 (no)
TGTGTTAA	Mot3 (UniProt P54785)	1 (yes)
AGTGTTAG	Mot3 (UniProt P54785)	0 (no)
CGATTACA	Mot3 (UniProt P54785)	1 (yes)
ATATTACA	Mot3 (UniProt P54785)	1 (yes)
GGACAAAC	Mot3 (UniProt P54785)	0 (no)
TGTCTCAA	Mot3 (UniProt P54785)	0 (no)
AATGCCCG	Mot3 (UniProt P54785)	0 (no)
AATGCCTA	Mot3 (UniProt P54785)	1 (yes)
ACGGTGCA	Mot3 (UniProt P54785)	0 (no)
GCTGGACC	Mot3 (UniProt P54785)	0 (no)
CGCAGCCC	Mot3 (UniProt P54785)	0 (no)
AAGTGTAC	Mot3 (UniProt P54785)	0 (no)
CATGTTGC	Mot3 (UniProt P54785)	1 (yes)
GTTTCATA	Mot3 (UniProt P54785)	0 (no)
ACGGTGCG	Mot3 (UniProt P54785)	0 (no)
AGCGTGCC	Mot3 (UniProt P54785)	1 (yes)
AATACATT	Mot3 (UniProt P54785)	1 (yes)
GCGTGTAC	Mot3 (UniProt P54785)	1 (yes)
ATCTTAGC	Mot3 (UniProt P54785)	0 (no)
AAGGGGAA	Mot3 (UniProt P54785)	0 (no)
AAGTTTAA	Mot3 (UniProt P54785)	0 (no)
AGATTACC	Mot3 (UniProt P54785)	0 (no)
CGTGTGCC	Mot3 (UniProt P54785)	1 (yes)
GCCTCGCC	Mot3 (UniProt P54785)	0 (no)
GATGCCTA	Mot3 (UniProt P54785)	1 (yes)
GGTGTTTA	Mot3 (UniProt P54785)	0 (no)
TATTCACA	Mot3 (UniProt P54785)	1 (yes)
GATTACGC	Mot3 (UniProt P54785)	1 (yes)
CGTGTTAA	Mot3 (UniProt P54785)	1 (yes)
AGTGTGCC	Mot3 (UniProt P54785)	1 (yes)
TAGCCAAA	Mot3 (UniProt P54785)	0 (no)
ACGTGTAC	Mot3 (UniProt P54785)	1 (yes)
GCTTACAC	Mot3 (UniProt P54785)	0 (no)
ACTGGCTG	Mot3 (UniProt P54785)	0 (no)
AACTAAGA	Mot3 (UniProt P54785)	0 (no)
CGCGTGGC	Mot3 (UniProt P54785)	0 (no)
CTATTACA	Mot3 (UniProt P54785)	1 (yes)
AACGTGCA	Mot3 (UniProt P54785)	0 (no)
ACTTACAT	Mot3 (UniProt P54785)	1 (yes)
CATTACAA	Mot3 (UniProt P54785)	1 (yes)
CGGGGCTA	Mot3 (UniProt P54785)	0 (no)
CGGCATCA	Mot3 (UniProt P54785)	0 (no)
AAGCTAGT	Mot3 (UniProt P54785)	0 (no)
GTTGTTAA	Mot3 (UniProt P54785)	1 (yes)
CGGAATAG	Mot3 (UniProt P54785)	0 (no)
GGATTACC	Mot3 (UniProt P54785)	0 (no)
AATGCCGA	Mot3 (UniProt P54785)	0 (no)
ATCAATGC	Mot3 (UniProt P54785)	0 (no)
CCCGCTTC	Mot3 (UniProt P54785)	0 (no)
CGCGTTAA	Mot3 (UniProt P54785)	1 (yes)
AATGTTGA	Mot3 (UniProt P54785)	0 (no)
AGGATCGA	Mot3 (UniProt P54785)	0 (no)
AAGCATCC	Mot3 (UniProt P54785)	0 (no)
GGTGTTAA	Mot3 (UniProt P54785)	1 (yes)
GATTACAC	Mot3 (UniProt P54785)	1 (yes)
ATATACGA	Mot3 (UniProt P54785)	0 (no)
AATACATG	Mot3 (UniProt P54785)	1 (yes)
CATACATG	Mot3 (UniProt P54785)	1 (yes)
AAGGCGCT	Mot3 (UniProt P54785)	1 (yes)
CGTGTTCA	Mot3 (UniProt P54785)	1 (yes)
AATTACAG	Mot3 (UniProt P54785)	1 (yes)
GATGTTTA	Mot3 (UniProt P54785)	0 (no)
CTGAGCCC	Mot3 (UniProt P54785)	0 (no)
ACCGGTGA	Mot3 (UniProt P54785)	0 (no)
CATTACAC	Mot3 (UniProt P54785)	1 (yes)
CACCAGAG	Mot3 (UniProt P54785)	0 (no)
CCTGTTAA	Mot3 (UniProt P54785)	1 (yes)
AGATTACT	Mot3 (UniProt P54785)	0 (no)
CTGAGGTC	Mot3 (UniProt P54785)	0 (no)
AGGCATCC	Mot3 (UniProt P54785)	1 (yes)
CTTGTTAC	Mot3 (UniProt P54785)	0 (no)
AATCCATC	Mot3 (UniProt P54785)	0 (no)

---

Molecular target: Mot3 (UniProt P54785)
Sequence: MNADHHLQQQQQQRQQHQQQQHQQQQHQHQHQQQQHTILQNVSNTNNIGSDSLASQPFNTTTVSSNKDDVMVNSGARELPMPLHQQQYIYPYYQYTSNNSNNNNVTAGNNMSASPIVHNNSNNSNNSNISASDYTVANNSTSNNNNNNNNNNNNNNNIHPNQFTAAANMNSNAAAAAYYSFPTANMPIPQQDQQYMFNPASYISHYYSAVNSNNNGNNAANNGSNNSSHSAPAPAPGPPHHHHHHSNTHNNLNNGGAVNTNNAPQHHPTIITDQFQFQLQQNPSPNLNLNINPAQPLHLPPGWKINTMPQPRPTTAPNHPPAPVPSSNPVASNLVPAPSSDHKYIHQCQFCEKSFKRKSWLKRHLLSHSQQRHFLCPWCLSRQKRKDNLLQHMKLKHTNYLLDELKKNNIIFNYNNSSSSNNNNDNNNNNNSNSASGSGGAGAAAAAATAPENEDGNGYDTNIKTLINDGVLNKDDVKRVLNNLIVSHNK
Assay: PBM E-score (8-mer binding enrichment) (E-score (-0.5 to 0.5)); higher = stronger / more preferred TF binding
Settings: protein concentration: 200 nM; construct: GST-full length
Whole data set: some 33,000 sequences, median “E-score (-0.5 to 0.5)” near -0.035, cut for the highest 2% near 0.34. For the sample, the highest values were picked, then their nearest neighbours and some sequences at random.
Listed sequences paired with reported PBM E-score

chain	PBM E-score
CGAAGGCC	-0.0438
TACACACA	0.385
GGAAGGCA	0.482
CGAAGGCG	0.193
GATACACA	0.14
TATCGGCA	-0.0281
TGAAGCCA	-0.0204
GGAAGGGA	-0.292
GACACGCA	0.246
AGAAGGCA	0.475
AGAAGGCG	0.27
TGAAGGCA	0.483
GCGTAATA	0.308
CAAGGCCC	0.0163
CAAGGCAC	0.488
AATACACA	0.389
TACACGCA	0.346
AATACAAG	0.313
AACACGCA	0.326
ACGTAACG	0.0865
TAAGGCTA	0.129
CCGTAATA	0.121
